# MEASUREMENT DESCRIPTION: NCI Yeast Anticancer Drug Screen. Data for the cln2 rad14 strain (AID 165)
# CONDITION INFO: S. cerevisiae cln2 rad14 strain, at 50.0 µM
# Protocol: Growth inhibition of yeast strains with defined genetic alterations is measured as a screen for potential anti-cancer activity. Selected strains with alterations in DNA damage repair or cell cycle control were exposed to compounds and growth inhibition was measured relative to vehicle treated controls. The strain used in this assay is cln2 rad14
About 79,000 compounds went through this panel and 15% of them were active in at least one assay; those are over-represented in the sample as a whole. Activity calls are given as the source filed them. No stated cut-off is given here; in the data, active means growth inhibition above about 70%; inactive means the rest.
Possible outcomes: yes (active), no (inactive)

COMPOUND: CCCCCCCCCCCC(=O)CN1CCOCC1
CLASS: yes
//
COMPOUND: C[C@H](CCC(=O)O)[C@H]1CC[C@H]2[C@@H]3[C@H](O)C[C@@H]4C[C@H](O)CC[C@]4(C)[C@H]3CC[C@]12C
CLASS: yes
//
COMPOUND: N#Cc1c(/N=C/c2ccccc2Cl)sc2c1CCC2
CLASS: no
//
COMPOUND: COc1ccc(/C=C2\C=Nc3ccccc32)cc1
CLASS: no
//
COMPOUND: O=C(CC1(O)C(=O)Nc2ccccc21)c1ccc(Cl)c(Cl)c1 (stereo unspecified)
CLASS: yes
//
COMPOUND: Nc1cc2c(cc1[N+](=O)[O-])[nH]c1c(-c3ccccc3)nccc12
CLASS: yes
//
COMPOUND: Cc1ccc(NCCN(C)C)c2c(=O)c3cc(O)ccc3sc12
CLASS: yes
//
COMPOUND: CCc1cc2c(cc1C(C)=O)C(C)(C)CCC2
CLASS: yes
//
COMPOUND: O=S(=O)(O)c1ccc(NN(c2c(O)ccc3ccccc23)S(=O)(=O)O)cc1
CLASS: no
//
COMPOUND: CC(=O)Nc1ccc(S(=O)(=O)N/N=C/c2ccc(C)cc2)cc1
CLASS: no
//
COMPOUND: Cc1nc2ccccc2cc1CCl
CLASS: yes
